Molecular target: T1, human CD40 (human, UniProt P25942 21-277)
T1 construct: whole, on cells; also called huCD40; CD40 expressed on JY cells
T1 sequence (P25942 21-277): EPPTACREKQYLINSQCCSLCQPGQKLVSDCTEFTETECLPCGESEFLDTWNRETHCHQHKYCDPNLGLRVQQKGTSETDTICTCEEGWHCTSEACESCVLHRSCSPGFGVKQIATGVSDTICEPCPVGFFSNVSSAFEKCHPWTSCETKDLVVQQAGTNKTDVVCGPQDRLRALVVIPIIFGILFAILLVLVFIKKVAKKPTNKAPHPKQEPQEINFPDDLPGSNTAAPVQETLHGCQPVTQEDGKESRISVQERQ
Assay: FACS on JY cells expressing CD40; 100 µl PER.C6 transient supernatant harvested after 48 h (antibody concentration not equalised), FITC anti-human IgG 1/100; in the same figure Mock Control Mean 11.25 / Median 8.74, FACS control (secondary only) Mean 10.18 / Median 8.74
endpoint_name: Median (FL1-H)
Expressed in FL1-H, but write only the number.

Use these answered entries as a reference point.
[[record]]
binder = "T17S variant of deimmunised 5D12 (antibody, human IgG4, V domains shown, VH on a human IgG4 backbone) VH: QVKLQESGPGLVKPSESLSITCTVSGFSISRYSVYWIRQPPGKGPEWMGMMWGGGSTDYSTSLKSRLTISKDTSKSQVSLKMNSLRTDDTAMYYCVRTDGDYWGQGTTVTVSS VL: ELQLTQSPLSLPVTLGQPASISCRSSQSLANSNGNTYLHWYLQRPGQSPRLLIYKVSNRFSGVPDRFSGSGSGTDFTLKISRVEAEDVGVYYCSQSTHVPWTFGGGTKLEIKR"
endpoint_name = "Median (FL1-H)"
quantitative_result = 31.9

[[record]]
binder = "I37V variant of deimmunised 5D12 (antibody, human IgG4, V domains shown, VH on a human IgG4 backbone; also called 137V; 29I-37V) VH: QVKLQESGPGLVKPSETLSITCTVSGFSISRYSVYWVRQPPGKGPEWMGMMWGGGSTDYSTSLKSRLTISKDTSKSQVSLKMNSLRTDDTAMYYCVRTDGDYWGQGTTVTVSS VL: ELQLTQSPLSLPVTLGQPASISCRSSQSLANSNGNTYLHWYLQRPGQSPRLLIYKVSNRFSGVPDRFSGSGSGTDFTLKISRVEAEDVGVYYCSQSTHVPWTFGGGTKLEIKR"
endpoint_name = "Median (FL1-H)"
quantitative_result = 82


Incoming: # query: Median (FL1-H) of entry K13A variant of deimmunised 5D12 (antibody, human IgG4, V domains shown, VH on a human IgG4 backbone) VH: QVKLQESGPGLVAPSETLSITCTVSGFSISRYSVYWIRQPPGKGPEWMGMMWGGGSTDYSTSLKSRLTISKDTSKSQVSLKMNSLRTDDTAMYYCVRTDGDYWGQGTTVTVSS VL: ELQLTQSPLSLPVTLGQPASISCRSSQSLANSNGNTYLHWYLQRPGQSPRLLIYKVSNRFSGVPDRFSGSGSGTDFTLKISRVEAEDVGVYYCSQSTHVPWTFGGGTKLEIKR
Outgoing: 30

Hey, just so you know, these numbers are from patent US8669352.
